- Tested on: kochia
- protocol: Test C postemergence
- Assay type: in vivo, Kochia scoparia
- condition summary: Postemergence, 62 g ai/ha; scale 0 to 100 (0 no effect, 100 complete control)
// NO strictly below 90 in Plant response rating, Kochia; YES otherwise

| structure | assigned label |
| --- | --- |
| N#Cc1cccc(Oc2ncc(Cl)cn2)c1-n1cc(OC(F)F)cn1 | YES |
| CC(C)c1cnn(-c2c(C#N)cccc2Oc2ncc(Cl)cn2)c1 | NO |
| N#Cc1cnn(-c2c(Br)cccc2Oc2ncc(Cl)cn2)c1 | NO |

Dear colleague, could you confirm whether FC(F)c1cccc(Oc2ncc(Br)cn2)c1-n1cc(C(F)(F)F)cn1 has Plant response rating, Kochia at or above 90?
YES

====

Please respond with reported Ryegrass, Italian plant response rating (0 to 100 scale) for every item in the list.
- Tested on: Italian ryegrass
- protocol: Test A preemergence
- Format: in vivo, Lolium multiflorum
- condition summary: 125 g ai/ha
Numbers only.

Example molecules with recorded Ryegrass, Italian plant response rating (0 to 100 scale):
| molecule | obs value |
| --- | --- |
| FCc1cccc(Oc2ncc(Cl)cn2)c1-n1cc(I)cn1 [Compound 245] | 0 |
| FC(F)(F)Sc1cnn(-c2ccccc2Oc2ncc(Br)cn2)c1 [Compound 246] | 0 |

I need Ryegrass, Italian plant response rating (0 to 100 scale) for every entry listed below, if you could help.
1. COc1cccc(Oc2ncc(Cl)cn2)c1-n1cc(Cl)cn1 [Compound 169]
2. N#Cc1cccc(Oc2ncc(Cl)cn2)c1-n1cc(C(F)F)cn1 [Compound 253]
3. FCc1cccc(Oc2ncc(Br)cn2)c1-n1cc(Cl)cn1 [Compound 251]

0
20
0

====

- System: galium
- protocol: Test A postemergence
- Type: in vivo, Galium aparine
- condition summary: 31 g ai/ha, 0 to 100 scale, 0 no effect, 100 complete control
quantity name: Plant response rating, Galium

Example compounds with recorded Plant response rating, Galium:
| compound | target system | quantity name | obs value |
| --- | --- | --- | --- |
| N#Cc1cnn(-c2c(Cl)cccc2Oc2ncc(Cl)cn2)c1 [Compound 144] | galium | Plant response rating, Galium | 80 |
| CC(C)Oc1cnn(-c2c(C#N)cccc2Oc2ncc(Cl)cn2)c1 [Compound 149] | galium | Plant response rating, Galium | 70 |
| FCc1cccc(Oc2ncc(Br)cn2)c1-n1cc(Cl)cn1 [Compound 251] | galium | Plant response rating, Galium | 20 |
| FC(F)(F)c1cnn(-c2c(Oc3ncc(Cl)cn3)cccc2-c2ncon2)c1 [Compound 279] | galium | Plant response rating, Galium | 20 |

I need Plant response rating, Galium for every entry listed below, if you could help.
1. FC(F)(F)COc1cnn(-c2c(Cl)cccc2Oc2ncc(Cl)cn2)c1 [Compound 110]
2. FC(F)(F)Sc1cnn(-c2ccccc2Oc2ncc(Br)cn2)c1 [Compound 246]

40
20

====

Please respond with reported Corn plant response rating for every item in the list.
- Test system: corn
- protocol: Test C preemergence
- Assay type: in vivo, Zea mays
- condition summary: 16 g ai/ha, preemergence; scale 0 to 100 (0 no effect, 100 complete control)
Answers are plain numbers.

Example compounds with recorded Corn plant response rating:
| compound | Corn plant response rating |
| --- | --- |
| CC(C)c1cnn(-c2c(C#N)cccc2Oc2ncc(Cl)cn2)c1 [Compound 85] | 5 |
| Cc1cnc(Oc2cccc(C#N)c2-n2cc(C#N)cn2)nc1 [Compound 90] | 0 |
| NC(=S)c1cccc(Oc2ncc(Cl)cn2)c1-n1cc(Cl)cn1 [Compound 292] | 0 |

For the next question, use this compound.
Notebook: Fc1cnc(Oc2cccc(C(F)F)c2-n2cc(Cl)cn2)nc1 [Compound 94] , Corn plant response rating read as 5
